System: RAW-Dual (murine macrophage reporter line)
Measurement Notes: IRF reporter (Lucia luciferase) activity fold change vs agonist alone; higher = enhanced IRF activity
Recorded Conditions: modulator concentration 10 µM; agonist: MPLA […]
Readout Type: IRF reporter
Answers are plain numbers.

The examples below pair each entry with its known result.
Molecule: CC(C)Cc1ccc(C(C)C(=O)O)cc1.NCCCC[C@H](N)C(=O)O (configuration not stated)
IRF reporter: 1.41

Molecule: COc1cc2nc(N3CCN(C(=O)c4ccco4)CC3)nc(N)c2cc1OC
IRF reporter: 1.48

Molecule: CN(C)CCC(c1ccc(Cl)cc1)c1ccccn1.O=C(O)/C=C\C(=O)O (configuration not stated)
IRF reporter: 1.11

Molecule: Cc1ccc(Cn2c(N)nc3ccccc32)cc1
IRF reporter: 1.37

Molecule: O=C(Cn1cnc(-c2ccc(Cl)cc2)cc1=O)N1CCOCC1
IRF reporter: 1.09

Molecule: Cc1ccc(NS(=O)(=O)c2cc3c4c(cccc4c2)C(=O)NC3=O)cc1C
IRF reporter: 0.815

Molecule: CC(=O)N=C1NC(=O)C(=Cc2ccc(C)o2)S1
IRF reporter: 0.823

Molecule: COc1ccc(-c2cc(=O)c3c(O)cc(O)cc3o2)cc1O
IRF reporter: 0.356

Molecule: O=C(O)c1coc(CNC(=O)c2cocc2C(=O)O)c1
IRF reporter: 1.14

Molecule: FC(F)(F)c1nnc2ccc(NC3CCN(c4ncnc5c4CCCC5)CC3)nn12
IRF reporter: 1.4

Batch: IRF reporter for all items listed.
1. C=CCNC(=O)CN(Cc1ccccc1)S(=O)(=O)c1ccc(OC)c(OC)c1
2. Cl.Cl.OCCOCCN1CCN(C(c2ccccc2)c2ccc(Cl)cc2)CC1 (configuration not stated)
3. CCOc1ccccc1O[C@H](c1ccccc1)[C@H]1CNCCO1.CS(=O)(=O)O
4. CCCOc1cccc(C(=O)Nc2scc(-c3ccccc3)c2C(=O)OC(C)C)c1
5. O=C(COC(=O)c1ccc2ccccc2n1)c1ccc(Br)cc1
6. CCN1CCN(CC(O)COc2ccc(C(C)(C)C)cc2C(C)(C)C)CC1.Cl.Cl (configuration not stated)
7. Nc1ccc(O)c(C(=O)O)c1

Resp:
[1.13, 1.45, 0.897, 0.65, 1.42, 2.24, 1.03]

Provide IRF reporter for all items below, preserving their order.
1. O=C(CC12CC3CC(CC(C3)C1)C2)N1CCCCC1
2. Cc1noc(C)c1CCC(=O)N1CCCC(c2nnc(C(F)(F)F)o2)C1 (configuration not stated)
3. CCN1C(=O)C(=Cc2nc3ccccc3c(=O)n2-c2ccc(C)cc2)c2ccccc21
4. Cc1ccc(CCC(=O)N2CC(N3C(=O)C4CC=CCC4C3=O)C2)cc1F (configuration not stated)
5. COc1ccc(-n2c(C)c([N+](=O)[O-])c3ccc(O)cc32)cc1

Resp:
1: 1.23; 2: 1.02; 3: 1.11; 4: 0.87; 5: 0.601

---

Assign IRF reporter to each entry below.
Tested on: RAW-Dual (murine macrophage reporter line)
Measurement Notes: IRF reporter (Lucia luciferase) activity fold change vs agonist alone; higher = enhanced IRF activity
Recorded Conditions: modulator concentration 10 µM; agonist: LPS 0.1 ug/mL
Numbers only.

Examples with answers:
Smiles Notation: CCN(CC)CCNC(=O)c1cc(S(C)(=O)=O)ccc1OC.Cl
Assay Value: 0.989

Smiles Notation: Cc1oncc1CNC(=O)c1ccc(C(C)(C)C)cc1
Assay Value: 1.01

Req: Recorded IRF reporter of "O=C(COc1ccc(Cl)cc1)Nc1ccc(OC(F)(F)F)cc1" , please.
Resp: 0.973

---

System: RAW-Dual (murine macrophage reporter line)
Measurement Notes: NF-kB reporter (SEAP) activity fold change vs agonist alone; higher = enhanced NF-kB activity
Recorded Conditions: modulator concentration 10 µM; agonist: MPLA […]
Please respond with reported NF-kB reporter for every item in the list.
Numbers only.

Compound: COC(=O)C1=CN(CC2CCCO2)C=C(C(=O)OC)C1c1ccccc1Br (centres undefined)
Assayed Target: RAW-Dual (murine macrophage reporter line)
Assay Value: 1.01

Compound: CCCC(CCC)C(=O)O
Assayed Target: RAW-Dual (murine macrophage reporter line)
Assay Value: 0.99

Compound: CC1(C)OC[C@@H](COC(=O)CCc2ccc(OC[C@@H](O)CNCCNC(=O)N3CCOCC3)cc2)O1.Cl
Assayed Target: RAW-Dual (murine macrophage reporter line)
Assay Value: 0.987

Continue with the next compound.
Req: Entry under review: "COc1ccc(CC(=O)N2CCCc3ccccc32)cc1OC" . Reported NF-kB reporter?
Resp: 1.01

---

System: RAW-Dual (murine macrophage reporter line)
Measurement Notes: IRF reporter (Lucia luciferase) activity fold change vs agonist alone; higher = enhanced IRF activity
Recorded Conditions: modulator concentration 10 µM; agonist: 3'3'-cGAMP 10 ug/mL
IRF reporter below 0.9 gives Not satisfied; IRF reporter at or above it gives Satisfied.

Req: Answer whether IRF reporter of "O=[N+]([O-])c1cc(C(F)(F)F)ccc1N1CCN(CC=Cc2ccccc2)CC1" is greater than or equal to 0.9.
Resp: Satisfied

---

System: RAW-Dual (murine macrophage reporter line)
Measurement Notes: NF-kB reporter (SEAP) activity fold change vs agonist alone; higher = enhanced NF-kB activity
Recorded Conditions: modulator concentration 10 µM; agonist: LPS 0.1 ug/mL
Provide the recorded NF-kB reporter for the entries that follow.
Give bare numbers.

Compound: COc1ccc(Cl)cc1C(=O)Nc1cc(C(F)(F)F)cc(C(F)(F)F)c1
Assayed Target: RAW-Dual (murine macrophage reporter line)
NF-kB reporter: 1.01
//
Compound: Cn1c(=O)cc(N2CCC[C@@H](N)C2)n(Cc2cc(F)ccc2C#N)c1=O
Assayed Target: RAW-Dual (murine macrophage reporter line)
NF-kB reporter: 1.02

Please give NF-kB reporter, item by item, for the list that follows.
1. Fc1ccc(CN2CCc3c([nH]c4ccccc34)C2)c(F)c1
2. COc1ccc(N(CC(=O)NCCc2ccc(OC)c(OC)c2)S(=O)(=O)c2ccc(OC)c(OC)c2)cc1
3. Cc1ccccc1C(=O)N1CC(S(=O)(=O)CC(C)C)C1
4. COc1cccc(C=NNc2nnc(C)c(=O)[nH]2)c1OC
5. O=C(CSc1nc(-c2ccccc2)c(-c2ccccc2)o1)N1CCOCC1
6. CC(C)CN(C[C@@H](O)[C@H](Cc1ccccc1)NC(=O)O[C@H]1CCOC1)S(=O)(=O)c1ccc(N)cc1
7. CCOC(=O)C1=C(C)NC(C)=C(C(=O)OC)C1c1ccc(C)cc1 (stereo not given)
8. Cn1nc2c(c1CNS(=O)(=O)CCC(F)(F)F)CCC2

Resp:
1. 0.378
2. 0.994
3. 0.907
4. 1.08
5. 1.02
6. 1.4
7. 0.743
8. 0.805

Your task in this section: give NF-kB reporter for each listed record.
1. CC1Cc2ccccc2N1C(=O)c1cc2n(n1)CCCO2 (stereo not given)
2. CSc1nc2cc(Oc3cccc(Cl)c3Cl)c(Cl)cc2[nH]1
3. CC(=O)Oc1c(C)cc2sc3ccccc3c(=O)c2c1C
4. CCc1cccc(C)c1NC(=O)C(C)(C)CC
5. COc1cc2nc(N3CCN(C(=O)C4COc5ccccc5O4)CC3)nc(N)c2cc1OC (stereo not given)
6. COc1ccc(-c2cc(C(F)(F)F)n3nc(C(=O)Nc4cc(OC)c(OC)c(OC)c4)c(Cl)c3n2)cc1OC
7. CCOc1ccc2nc(S(N)(=O)=O)sc2c1
8. Cl.OC(CC#CCN1CCCC1)(c1ccccc1)c1ccccc1

Resp:
1. 0.949
2. 0.771
3. 0.87
4. 0.846
5. 0.961
6. 1.01
7. 1.02
8. 1.08

Lab note: each compound below needs its NF-kB reporter filled in.
1. O=C(Nc1ccc(S(=O)(=O)N2CCOCC2)cc1)c1ccc(Br)s1
2. C[C@H](N[C@@H](CCc1ccccc1)C(=O)O)C(=O)N1CCC[C@H]1C(=O)O.O.O
3. O=C(O)CCCNC(=O)c1cccc([N+](=O)[O-])c1
4. OCCSCCc1ccncc1
5. COc1ccc(NCN2C(=O)c3ccccc3C2=O)c(OC)c1
6. COC(=O)c1cc(OC)c(=O)c2c(OC)c(OC)ccc2c1
7. CN(C)CCCOc1nn(Cc2ccccc2)c2ccccc12.Cl
8. O=C(O)c1cc(S(=O)(=O)N2CCCCC2)c(Cl)cc1Cl

Resp:
[1.02, 1.09, 1.11, 1.05, 0.972, 0.981, 0.913, 1.04]

Quick batch: NF-kB reporter for everything below.
1. Nc1ccc(S(=O)(=O)NCCO)cc1
2. Cc1cn2nc(C(=O)Nc3ccccc3N3CCN(C)CC3)cc2c(=O)[nH]1
3. C=Cc1c(C)c2cc3nc(cc4[nH]c(cc5nc(cc1[nH]2)C(C)=C5CCC(=O)O)c(CCC(=O)OC)c4C)[C@@]1(C)C3=CC=C(C(=O)OC)[C@H]1C(=O)OC
4. CC1=C(C(N)=O)C(c2cccs2)NC(=O)N1 (stereo not given)

Resp:
1.06
1.08
0.077
1.03
